System: MV-4-11 (human, Acute Myeloid Leukemia cell line) cells
TEST METHOD NOTES: Cell growth inhibition assay, GI50 of MV-4-11
Assay type: cell-based
PROTOCOL CONDITIONS: Homo sapiens, MV4-11, 72 h, MV-4-11 cells
Description: The anti-proliferative activity (cell growth inhibition assay) of the compounds according to the present invention against AML (Acute Myeloid Leukemia) cancer cells was measured. […] The lower the GI50 value, the higher the anti-proliferative activity. […] Also, the background absorbance was measured during the treatment with the test compounds by replacing the test compound with IMDM in the negative control plate. […] The GI50 values were calculated using a Prism 3.0 program.
Label rule met when GI50 < 3 nM; otherwise rule not met.

>>> label_value("C=CCN1CC(=O)N2[C@@H](Cc3ccc(O)cc3)C(=O)N(Cc3cccc4c(-c5ccc(NC(=O)N6CCN(C)CC6)cc5)cn(C)c34)C[C@@H]2N1C(=O)NCc1ccccc1 [Compound D-67]")
"rule met"
>>> label_value("C=CCN1CC(=O)N2[C@@H](Cc3ccc(O)cc3)C(=O)N(Cc3cccc4c(C(=O)NCc5cccc(N6CCCC6)n5)cn(C)c34)C[C@@H]2N1C(=O)NCc1ccccc1 [Compound F-49]")
"rule not met"
>>> label_value("C=CCN1CC(=O)N2[C@@H](Cc3ccc(O)cc3)C(=O)N(Cc3cccc4c(C(=O)N(C)Cc5cccc(C)n5)cn(C)c34)C[C@@H]2N1C(=O)NCc1ccccc1 [Compound F-45]")
"rule met"
>>> label_value("C=CCN1CC(=O)N2[C@@H](Cc3ccc(O)cc3)C(=O)N(Cc3cccc4c(C(=O)Nc5ccc(OCCN(C)C)nc5)cn(C)c34)C[C@@H]2N1C(=O)NCc1ccccc1 [Compound G-12]")
"rule not met"
>>> label_value("C=CCN1CC(=O)N2[C@@H](Cc3ccc(O)cc3)C(=O)N(Cc3cccc4c(-c5ccc(NC(=O)Nc6ccc(N7CCN(C)CC7)nc6)cc5)cn(C)c34)C[C@@H]2N1C(=O)NCc1ccccc1 [Compound D-78]")
"rule met"
>>> label_value("C=CCN1CC(=O)N2[C@@H](Cc3ccc(O)cc3)C(=O)N(Cc3cccc4c(-c5ccc(C(=O)NC6CCN(C(C)C)CC6)o5)cn(C)c34)C[C@@H]2N1C(=O)NCc1ccccc1 [Compound D-104]")
"rule not met"
>>> label_value("C=CCN1CC(=O)N2[C@@H](Cc3ccc(O)cc3)C(=O)N(Cc3cccc4c(C(=O)N5CCC(NC(=O)OC(C)(C)C)CC5)cn(C)c34)C[C@@H]2N1C(=O)NCc1ccccc1 [Compound E-56]")
"rule not met"
>>> label_value("C=CCN1CC(=O)N2[C@@H](Cc3ccc(O)cc3)C(=O)N(Cc3cccc4c(-c5ccc(C(=O)NN(C)C)cc5)cn(C)c34)C[C@@H]2N1C(=O)NCc1ccccc1 [Compound D-36]")
"rule met"
>>> label_value("C=CCN1CC(=O)N2[C@@H](Cc3ccc(O)cc3)C(=O)N(Cc3cccc4c(C(=O)N(C)CCCNC(C)C)cn(C)c34)C[C@@H]2N1C(=O)NCc1ccccc1 [Compound F-19]")
"rule met"
>>> label_value("C=CCN1CC(=O)N2[C@@H](Cc3ccc(O)cc3)C(=O)N(Cc3cccc4c(-c5ccc(C(=O)Nc6cccc(OC(C)C)c6)cc5)cn(C)c34)C[C@@H]2N1C(=O)NCc1ccccc1 [Compound D-26]")
"rule not met"
